Exercise: state measured Relative cell viability (%) for each of the compounds provided.
- Tested on: Human B Lymphocyte cell line, SU-DHL-8
- Protocol Notes: Relative cell viability (CCK-8), SU-DHL-8
- Format: cell-based
- Condition: SU-DHL-8, 10 μM, 48 hours, untreated cells (DMSO) = 100%
Numeric answer only, unit % assumed.

INPUT: What is its Relative cell viability (%) for Human B Lymphocyte cell line, SU-DHL-8? Entry: `Nc1ncccc1C(=O)NCCCCCCCCCCCCN1CCN(Cc2ccc(F)cc2)CC1`
OUTPUT: 4.97

INPUT: Field entry: CN(C)C1CCN(CCCCCCCCCCCCNC(=O)c2cccnc2N)C1 (stereo not shown)
OUTPUT: 7.51

INPUT: Field entry: `COc1ccc(CN2CCN(CCCCCCCCCCCCNC(=O)c3cccnc3N)CC2)cc1`
OUTPUT: 2.82

INPUT: Field entry: `CN1CCN(C2CCN(CCCCCCCCCCCCNC(=O)c3cccnc3N)CC2)CC1`
OUTPUT: 30.70

INPUT: Field entry: CC1CNCCN1CCCCCCCCCCCCNC(=O)c1cccnc1N (stereo not shown)
OUTPUT: 0.64

INPUT: Field entry: `Nc1ncccc1C(=O)NCCCCCCCCCCCCN1CCC(Oc2ccncc2)CC1`
OUTPUT: 3.30

INPUT: Field entry: `CN(C)CCN1CCN(CCCCCCCCCCCCNC(=O)c2cccnc2N)CC1`
OUTPUT: 4.32
